For each of the binders below, state its Neutralizing activity_IC50.
Biological target: T1, cynomolgus monkey EL-C2 tag (cynomolgus monkey, UniProt Q9Y5X9 21-500 (human entry), limits assumed)
T1 chain: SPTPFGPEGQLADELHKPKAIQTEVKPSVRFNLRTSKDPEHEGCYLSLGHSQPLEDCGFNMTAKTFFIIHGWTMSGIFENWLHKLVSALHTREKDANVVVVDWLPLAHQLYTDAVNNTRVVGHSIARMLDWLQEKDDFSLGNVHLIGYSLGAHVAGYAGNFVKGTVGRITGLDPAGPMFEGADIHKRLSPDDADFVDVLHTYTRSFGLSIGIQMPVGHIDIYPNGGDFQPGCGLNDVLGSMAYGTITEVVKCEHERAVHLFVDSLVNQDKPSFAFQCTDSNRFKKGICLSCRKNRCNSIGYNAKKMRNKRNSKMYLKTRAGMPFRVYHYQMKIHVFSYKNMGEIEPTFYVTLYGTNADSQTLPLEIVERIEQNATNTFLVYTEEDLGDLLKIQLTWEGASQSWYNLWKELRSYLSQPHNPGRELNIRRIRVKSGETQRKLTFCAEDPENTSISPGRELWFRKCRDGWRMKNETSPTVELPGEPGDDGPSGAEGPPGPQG
Experiment: cell-based or functional assay
Please answer using the number first and the unit second.

Before answering, review these 3 worked examples.
binder="16A11 antibody (antibody, IgG1, V domains shown) VH: QVTLKESGPGILQPSQTLSLTCSFSGFSLSTSGMGVGWVRQPSGKGLEWLAHIWWNDYYYYKTALKSRLTISKDTSNNQVFLKIASVDTVDTATYYCARMAPGTPFPSWGQGTLVTVSA VL: DIQMTQSPSSLSASLGGKVTITCKASQDINRYIAWYQHKPGKGPRLLIHYTSTLQPGIPSRFSGSGSGRDYSFSISNLEPEDIATYYCLQYDILLWTFGGGTKLEIK" result="6.2 nM"
binder="47B2 antibody (antibody, IgG2a, V domains shown) VH: QVALKESGPGILQPSQTLSLTCSFSGFSLSTSGMGVGWIRQPSGKGLEWLAHIWWHGNKYYSTGLKSRLTISKDTSNNQVFLKIASVDTADTATYYCARISAGYPLDYWGQGTSVTVSS VL: DIQMTQSPSSLSASLGGKVTITCKASQDINKYIVWYQHKPGKGPRLLIHYTSTLQPGFPSRFSGSGSGRDYSLSITNLEPEDIATYYCLQYDNLLWTFGGGTKLEIK" result="4.7 nM"
binder="8F5 antibody (antibody, IgG2a, V domains shown) VH: QVTLKESGPGILQPSQTLSLTCSFSGFSLSTSNMGVGWIRQPSGKGLEWLAHIWWNDYKYYNTALKSRLTISKDTSNNQVFLKIASLDTADTATYYCARIGGGTPLDYWGQGTSLTVSS VL: DIQMAQSPSSLSASLGGKVTITCKASQDIHTYIAWYQHKPGKGPRLLMLYTSTLQPGIPSRFSGSGSGRDYSFSISNLEPEDIATYYCLQYDDLLWTFGGGTKLEIK" result="3 nM"

Let us examine a further case.
Prompt: Give the reported value of Neutralizing activity_IC50 for this record: 25E4 antibody (antibody, IgG2b, V domains shown) VH: QVALKESGPGILQPSQTLSLTCSFSGFSLSTSGMGVGWIRQPSGKGLEWLAHIWWHGNKYYSTALKSRLTISKDTSNNQVFLKIASVDTADTATYYCARISDGYPLDYWGQGTSVTVSS VL: DIQMTQSPSSLSASLGGKVTITCKASQDINKYIVWYQQKPGKGPRLLIHYTSTLQPGFPSRFSGSGSGRDYSLSITNLEPEDIATYYCLQYDNLLWTFGGGTKLEIK
Completion: 4.2 nM

Recorded values, source patent US20150025225A1.
